Values from paper PMC12903857

- systemName: 14-3-3σ (Homo sapiens, UniProt P31947)
- Sequence (P31947 1-248): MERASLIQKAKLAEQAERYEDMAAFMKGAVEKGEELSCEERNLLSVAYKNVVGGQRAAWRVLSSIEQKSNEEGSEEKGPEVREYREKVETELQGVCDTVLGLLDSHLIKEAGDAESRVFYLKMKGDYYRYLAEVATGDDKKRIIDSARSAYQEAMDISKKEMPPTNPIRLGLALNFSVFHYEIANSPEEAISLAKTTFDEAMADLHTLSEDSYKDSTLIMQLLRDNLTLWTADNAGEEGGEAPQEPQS
- measurementDescription: Intact mass spectrometry assay, apo (no peptide)
- Format: binding
- Set-up: full-length for mass spectrometry and fluorescence anisotropy assays; made in house; host or cells: E. coli Rosetta 2(DE3)pLysS, pPROEX HTb vector
- assayContext: 1 μM compound, 100 nM 14-3-3σ, 24 h
quantityKind: % bound, APO, 24h (%)
Give just the number in %; leave the unit off.

O=C(CCl)NCC1CCN(S(=O)(=O)c2ccccc2)CC1 = 4.7
O=C(CCl)NCC1CCN(S(=O)(=O)Cc2ccccc2)CC1 = 4.7

*Q* Provide only the value of recorded % bound, APO, 24h for O=C(CCl)N1CC2CC1CN2S(=O)(=O)c1ccc(Br)c(F)c1 (stereo not shown)
*A* 51.8

*Q* Provide only the value of recorded % bound, APO, 24h for `O=C(CCl)NCC1CCN(S(=O)(=O)Cc2ccc(Cl)cc2)CC1`
*A* 1.9

----------
- systemName: 14-3-3σ/C-RAF259 (Homo sapiens)
- measurementDescription: Intact mass spectrometry assay with C-RAF259 phospho-peptide
- Type: binding
- Set-up: full-length for mass spectrometry and fluorescence anisotropy assays; made in house; host or cells: E. coli Rosetta 2(DE3)pLysS (14-3-3σ); peptides from Elim Biopharmaceuticals
- assayContext: 1 μM compound, 100 nM 14-3-3σ, 18 µM peptide, 8 h
- Description: In analogy to our previous work, two orthogonal assays were used for screening (Figure S2). […] Additionally, the compounds were tested in a fluorescence anisotropy (FA) assay in the presence of the 5-carboxyfluorescein-(FAM)-labeled C-RAF259 peptide. […] For FA experiments, the EC50 values from the overnight measurement were calculated and plotted as bar graphs showing the […] log EC50 value (pEC50). […]
quantityKind: % bound, C-RAF259 (11mer), 8h (%)
Give just the number in %; leave the unit off.

O=C(CCl)NCC1CCN(S(=O)(=O)C2CC3(C2)CC(F)(F)C3)CC1 [Compound 35] = 0

*Q* Recall the reported % bound, C-RAF259 (11mer), 8h of O=C(CCl)NCC1CCN(S(=O)(=O)c2ccc(F)c(F)c2)CC1 [Compound 28] on 14-3-3σ/C-RAF259 (Homo sapiens) and write it down.
*A* 15.2

*Q* Recall the reported % bound, C-RAF259 (11mer), 8h of O=C(CCl)N1CC2CC1CN2S(=O)(=O)c1ccc(Br)c(F)c1 (stereo not drawn) [Compound 58] on 14-3-3σ/C-RAF259 (Homo sapiens) and write it down.
*A* 45.2

*Q* Recall the reported % bound, C-RAF259 (11mer), 8h of O=C(CCl)NCC1CCN(S(=O)(=O)c2cccc(F)c2)CC1 [Compound 16] on 14-3-3σ/C-RAF259 (Homo sapiens) and write it down.
*A* 8.2

*Q* Recall the reported % bound, C-RAF259 (11mer), 8h of O=C(CCl)NCC1CCN(S(=O)(=O)c2ccc(F)cc2F)CC1 [Compound 27] on 14-3-3σ/C-RAF259 (Homo sapiens) and write it down.
*A* 14.1

*Q* Recall the reported % bound, C-RAF259 (11mer), 8h of O=C(CCl)NCC1CCN(S(=O)(=O)c2ccccc2F)CC1 [Compound 15] on 14-3-3σ/C-RAF259 (Homo sapiens) and write it down.
*A* 8.2

*Q* Recall the reported % bound, C-RAF259 (11mer), 8h of O=C(CCl)N1CC2(CCN(S(=O)(=O)c3ccc(Br)c(F)c3)CC2(F)F)C1 [Compound 52] on 14-3-3σ/C-RAF259 (Homo sapiens) and write it down.
*A* 45.1

*Q* Recall the reported % bound, C-RAF259 (11mer), 8h of O=C(CCl)NCC1CCN(S(=O)(=O)c2ccc(OC(F)(F)F)cc2)CC1 [Compound 19] on 14-3-3σ/C-RAF259 (Homo sapiens) and write it down.
*A* 41.3

*Q* Recall the reported % bound, C-RAF259 (11mer), 8h of C=C(F)C(=O)N1CC2(CCN(S(=O)(=O)c3ccc(Br)c(F)c3)CC2(F)F)C1 [Compound 75] on 14-3-3σ/C-RAF259 (Homo sapiens) and write it down.
*A* 0

----------
- systemName: 14-3-3σ/C-RAF259 (Homo sapiens)
- measurementDescription: Intact mass spectrometry assay with C-RAF259 phospho-peptide
- Format: binding
- Parameters: full-length for mass spectrometry and fluorescence anisotropy assays; made in house; host or cells: E. coli Rosetta 2(DE3)pLysS (14-3-3σ); peptides from Elim Biopharmaceuticals
- assayContext: 1 μM compound, 100 nM 14-3-3σ, 18 µM peptide, 24 h
- Protocol: In analogy to our previous work, two orthogonal assays were used for screening (Figure S2). […] Additionally, the compounds were tested in a fluorescence anisotropy (FA) assay in the presence of the 5-carboxyfluorescein-(FAM)-labeled C-RAF259 peptide. […] For FA experiments, the EC50 values from the overnight measurement were calculated and plotted as bar graphs showing the […] log EC50 value (pEC50). […]
quantityKind: % bound, C-RAF259 (11mer), 24h
Please make sure the unit comes right after the number.

O=C(CCl)NCC1CCN(S(=O)(=O)C2CCC3(CC2)CC3(F)F)CC1 (stereo not drawn) = 3.8%
O=C(CCl)NCCCC1CCN(S(=O)(=O)c2ccc(Cl)cc2)CC1 = 14.1%

*Q* Provide only the value of recorded % bound, C-RAF259 (11mer), 24h for `O=C(CCl)NCC1CCN(S(=O)(=O)Cc2ccccc2)CC1`
*A* 7%

*Q* Provide only the value of recorded % bound, C-RAF259 (11mer), 24h for `O=C(CCl)NCC1CCN(S(=O)(=O)c2ccc3c(c2)OCO3)CC1`
*A* 34.1%

*Q* Provide only the value of recorded % bound, C-RAF259 (11mer), 24h for `CC1(CNC(=O)CCl)CCN(S(=O)(=O)c2ccc(Br)c(F)c2)CC1`
*A* 84%

*Q* Provide only the value of recorded % bound, C-RAF259 (11mer), 24h for `O=C(CCl)NCC1CCN(S(=O)(=O)c2cccc(C(F)(F)F)c2)CC1`
*A* 12.3%

*Q* Provide only the value of recorded % bound, C-RAF259 (11mer), 24h for O=C(CCl)N1CC2(CC(NS(=O)(=O)c3ccc(Br)c(F)c3)CO2)C1 (stereo not drawn)
*A* 81.5%

*Q* Provide only the value of recorded % bound, C-RAF259 (11mer), 24h for `COc1ccc(S(=O)(=O)N2CCC(CNC(=O)CCl)CC2)cc1`
*A* 44.4%

*Q* Provide only the value of recorded % bound, C-RAF259 (11mer), 24h for `C=C(F)C(=O)N1CC2(CCN(S(=O)(=O)c3ccc(Br)c(F)c3)CC2(F)F)C1`
*A* 2.9%

----------
Attribute: % bound, C-RAF259 (11mer), 24h
- systemName: 14-3-3σ/C-RAF259 (Homo sapiens, UniProt P31947)
- measurementDescription: Intact mass spectrometry assay with C-RAF259 phospho-peptide
- Assay type: binding
- Design: full-length for mass spectrometry and fluorescence anisotropy assays; made in house; host or cells: E. coli Rosetta 2(DE3)pLysS (14-3-3σ); peptides from Elim Biopharmaceuticals
- assayContext: 1 μM compound, 100 nM 14-3-3σ, 18 µM peptide, 24 h
Give just the number in %; leave the unit off.

Example entries and their recorded answers appear below.
O=C(CCl)N1CC2(CC(NS(=O)(=O)c3ccc(Br)c(F)c3)C2)C1 = 80.8
N#Cc1ccc(S(=O)(=O)N2CCC(CNC(=O)CCl)CC2)cc1 = 42.3

Attention now turns to another entry.
*Q* Provide only the value of recorded % bound, C-RAF259 (11mer), 24h for `O=C(CCl)NCC1CCN(S(=O)(=O)c2ccccc2F)CC1`
*A* 23.3
